The reported measurements were obtained from the supplement of paper PMC10290057.

System: HCT116
Assay: efficacy (fitted maximal change in viability relative to DMSO control); higher = less cytotoxic (negative = loss of viability)
Details: 48 h
Structures can show the parent of a compound that is named as a salt.
Use -50% as the dividing line for efficacy, with the line itself on the satisfied side and lower values as not satisfied.

Recorded results for 7 compounds are shown here.
Nc1ncnc2c1c(-c1cccc(OCc3ccccc3)c1)cn2[C@H]1C[C@@H](CN2CCC2)C1: not satisfied
COC1CCN(CC1)C(=O)C2=CC(=CC=C2F)CC/3=N/NC(=O)C4=CC=CC=C34: satisfied
C/C(=N\Nc1nnc2c(n1)[nH]c1c(C)cccc12)c1ccccn1: not satisfied
C=CC(=O)Nc1cc(Nc2nccc(-c3cn(C)c4ccccc34)n2)c(OC)cc1N(C)CCN(C)C [Osimertinib mesylate]: not satisfied
CNC(=O)c1c(F)cccc1Nc1nc(Nc2cc3c(cc2OC)CCN3C(=O)CN(C)C)nc2[nH]ccc12: not satisfied
Cc1c(C(=O)N2CCOc3ccc(-c4ccc(N)nc4)cc3C2)ccc([S+](C)(=O)[O-])c1F: not satisfied
CCOC(=O)Nc1ccc(NCc2ccc(F)cc2)cc1N: satisfied

Please find the next compound below.
Query: Does OCCCNc1cc(-c2ccnc(Nc3cccc(Cl)c3)n2)ccn1 have a reported efficacy of at least -50%?
Reply: not satisfied

###

Test system: HCT116
Assay: efficacy (fitted maximal change in viability relative to DMSO control); higher = less cytotoxic (negative = loss of viability)
Conditions: 48 h
Structures can show the parent of a compound that is named as a salt.
value.kind: efficacy (%)
API: value field is a number in %; no unit string.

The cases that follow already have their efficacy on record.
Nc1ccc(/C=C/C(=O)NCc2cc3cc(-c4ccc(C(=O)N5CCC(F)(F)CC5)cc4)cc(-c4ccc(F)cc4)c3o2)cn1: -91.7
CC(=O)O[C@H]1C[C@@H]2CC[C@@H]3[C@H](CC[C@@]4(C)[C@H]3C[C@H]([N+]3(C)CCCCC3)[C@@H]4OC(C)=O)[C@@]2(C)C[C@@H]1[N+]1(C)CCCCC1 [Pancuronium bromide]: -8.83
Fc1ccc(-c2csc3ncnc(NCc4ccc5c(c4)OCO5)c23)cc1: -57.3
C[C@H](Cc1ccc(O)c(O)c1)[C@@H](C)Cc1ccc(O)c(O)c1: -46.2
CC1=CC=CC=C1N2\C(=N/C3=C(C(=CC=C3)C)C2=O)C[N]4C=NC5=C4N=CN=C5N: -13.6
O=C(NC[C@H]1CN(c2ccc(N3CCOCC3=O)cc2)C(=O)O1)c1ccc(Cl)s1: -24.9
COc1cc(OCc2cccc(-c3ccccc3)c2C)cc(OC)c1CN1CCCC[C@H]1C(=O)O: -62
COC1=C(CN(C)C)C=C(OC)C(=C1)C/2=C/N(C)C(=O)C3=C2C=CN=C3: -71.5

Query: Quick one: efficacy of Cc1c(-c2ccc(O)cc2)n(Cc2ccc(OCCN3CCCCCC3)cc2)c2ccc(O)cc12 ?
Reply: -101

Query: Similarly, CC(C)NC(=O)N1CC[C@@H](C1)NC/2=N/C3=C(C=CC(=C3)F)N(CC(F)F)C4=C2C=C(Cl)C=C4 ?
Reply: -21.2

Query: Similarly, CC(=O)O[C@@]12CO[C@@H]1C[C@H](O)[C@@]1(C)C(=O)[C@H](O)C3=C(C)[C@@H](OC(=O)[C@H](O)[C@@H](NC(=O)OC(C)(C)C)c4ccccc4)C[C@@](O)([C@@H](OC(=O)c4ccccc4)[C@H]21)C3(C)C ?
Reply: -56.4

Query: Similarly, CC(=O)[C@]1(O)Cc2c(O)c3c(c(O)c2[C@@H](O[C@H]2C[C@H](N)[C@H](O)[C@H](C)O2)C1)C(=O)c1ccccc1C3=O [Idarubicin hydrochloride] ?
Reply: -83

Query: Similarly, O=C1N\N=C(\CC2=CC=CC(=C2)C(=O)N3CCN(CC3)C4=NC=CC=C4C#N)C5=CC=CC=C15 ?
Reply: -54.2

###

// values below are reported efficacy
Tested on: HCT116
Test: efficacy (fitted maximal change in viability relative to DMSO control); higher = less cytotoxic (negative = loss of viability)
Conditions: 48 h
API: value field is a number in %; no unit string.

Cc1cc(C(=O)Nc2cc(Oc3ccc4nc(NC(=O)C5CC5)cn4n3)ccc2C)n(C)n1: -56.7

Query: Quick one: efficacy of Cc1cc(Nc2ncc3c(n2)N(C)C(=O)N(c2cc(NC(=O)c4cccc(C(F)(F)F)c4)ccc2C)C3)n(C)n1 ?
Reply: -74

Query: Similarly, O=C(O)CCNC(=O)c1ccc(/N=N/c2ccc(O)c(C(=O)O)c2)cc1 [Balsalazide disodium] ?
Reply: -11.7

Query: Similarly, C/C(=C\c1csc(C)n1)[C@@H]1C[C@@H]2O[C@]2(C)CCC[C@H](C)[C@H](O)[C@@H](C)C(=O)C(C)(C)[C@@H](O)CC(=O)N1 [Ixabepilone] ?
Reply: -58.5

Query: Similarly, CN[C@@H](C)C(=O)N[C@H](C(=O)N1CCC[C@H]1c1nc(C(=O)c2ccc(F)cc2)cs1)C1CCCCC1 ?
Reply: -23.8

Query: Similarly, CC(N[C@H]1CCCC[C@@H]1NC(=O)c1ccc(Cl)cc1)c1cccc2ccccc12 (some centres not stated) ?
Reply: -92.8

Query: Similarly, CCOC(=O)[C@@H](N)CCC(=O)N[C@@H](CSCc1ccccc1)C(=O)N[C@@H](C(=O)OCC)c1ccccc1 ?
Reply: -18.5

###

Test system: HCT116
Test: AC50 cell viability (CellTiter-Glo); higher = less potent
Details: 48 h
Structures can show the parent of a compound that is named as a salt.
// values below are reported AC50 cell viability
API: value field is a number in µM; no unit string.

The cases that follow already have their AC50 cell viability on record.
CN1CCC(CC1)=C2C3=C(C=CC=C3)\C=C/C4=C2C=CC=C4 [Cyproheptadine hydrochloride]: 23.5
CC[C@]1(O)C[C@H]2CN(CCC3=C([NH]C4=C3C=CC=C4)[C@@](C2)(C(=O)OC)C5=CC6=C(C=C5OC)N(C=O)[C@H]7[C@](O)([C@H](OC(C)=O)[C@]8(CC)\C=C/CN9CC[C@]67[C@H]89)C(=O)OC)C1 [Vincristine sulfate]: 0.372
CC1=N[NH]C=C1C2=CC\3=C(S2)C(=O)NC(=N3)\[C@@H]4CC5CCN4CC5 [TAK-931]: 2.63
C[S+](=O)([O-])N1CCN(Cc2cc3nc(-c4cccc5[nH]ncc45)nc(N4CCOCC4)c3s2)CC1 [Pictilisib]: 3.32
COc1ccc(C(=O)c2c(C)n(CCN3CCOCC3)c3ccccc23)cc1 [Pravadoline]: 1.32

Query: Quick one: AC50 cell viability of N[S+](=O)([O-])c1ccc(NC(=S)N2CCN(C/C=C/c3ccccc3)CC2)cc1 [LF3] ?
Reply: 2.95

Query: Similarly, CC(C)Oc1ccc(C(=O)N[C@H](CNC(=O)CN(C)C)Cc2ccc(-c3cn4cccc([C@H](C)O)c4n3)cc2)cc1Cl ?
Reply: 4.17

Query: Similarly, CC(C)C[C@H](NC(=O)CNC(=O)c1cc(Cl)ccc1Cl)B(O)O [Ixazomib] ?
Reply: 0.0833

Query: Similarly, OC[C@H](Cc1ccccc1)Nc1nc(Oc2ccc3c(c2)CCC3)nc2c1ncn2Cc1ccc(-c2ccccc2)cc1 [QS11] ?
Reply: 9.34

###

System: HCT116
Test: efficacy (fitted maximal change in viability relative to DMSO control); higher = less cytotoxic (negative = loss of viability)
Conditions: 48 h
Structures can show the parent of a compound that is named as a salt.
value.kind: efficacy
Field note: include the unit after the figure.

CC(C)c1c2cc(-c3ccnc(N[C@H]4CC[C@H](NC5CCOCC5)CC4)n3)ccc2nn1C: -72.3%
Cc1ccsc1C(=CCCN1CCC[C@@H](C(=O)O)C1)c1sccc1C [Tiagabine hydrochloride]: -8.94%
CC1(C)O[C@@H]2C[C@H]3[C@@H]4C[C@H](F)C/5=C/C(=O)/C=C\[C@]5(C)[C@@]4(F)[C@@H](O)C[C@]3(C)[C@@]2(O1)C(=O)CO [Fluocinolone acetonide]: -10.6%

# next molecule below
Query: Quick one: efficacy of CNCCn1c(=O)c2cc(OC)c(OC)cc2c2cnc3cc4c(cc3c21)OCO4 ?
Reply: -80.9%

###

Test system: HCT116
Assay: AC50 cell viability (CellTiter-Glo); higher = less potent
Conditions: 48 h
// values below are reported AC50 cell viability
API: value field is a number in µM; no unit string.

COC1=CC=C(C(=C1)OC(C)C)C/2=N/[C@@H]([C@@H](N2C(=O)N3CCNC(=O)C3)C4=CC=C(Cl)C=C4)C5=CC=C(Cl)C=C5: 23.5
O=C1c2ccccc2-c2n[nH]c3cccc1c23: 13.2
NCC1CCN(c2nccc(-c3ccc4ccccc4c3)n2)CC1: 14.8
O=C(Nc1cccc(C(F)(F)F)c1)Nc1cc([S+](=O)([O-])NC2CC2)ccc1-c1ccsc1: 26.3
COc1cc2c(cc1OC(C)C)[C@H](c1ccc(Cl)cc1)N(c1ccc(N(C)C[C@H]3CC[C@H](N4CCN(C)C(=O)C4)CC3)cc1)C(=O)C2: 14.8
O=C(NC1CCNCC1)c1n[nH]cc1NC(=O)c1c(Cl)cccc1Cl: 0.235

# next compound below
Query: Query AC50 cell viability on HCT116 for CCCCOC(=O)N[S+](=O)([O-])c1sc(CC(C)C)cc1-c1ccc(Cn2ccnc2)cc1
Reply: 18.6
